Assignment: determine reported pIC50 for the given molecules.
- TESTED TARGET: SRC (Homo sapiens)
- Sequence (P12931 whole entry): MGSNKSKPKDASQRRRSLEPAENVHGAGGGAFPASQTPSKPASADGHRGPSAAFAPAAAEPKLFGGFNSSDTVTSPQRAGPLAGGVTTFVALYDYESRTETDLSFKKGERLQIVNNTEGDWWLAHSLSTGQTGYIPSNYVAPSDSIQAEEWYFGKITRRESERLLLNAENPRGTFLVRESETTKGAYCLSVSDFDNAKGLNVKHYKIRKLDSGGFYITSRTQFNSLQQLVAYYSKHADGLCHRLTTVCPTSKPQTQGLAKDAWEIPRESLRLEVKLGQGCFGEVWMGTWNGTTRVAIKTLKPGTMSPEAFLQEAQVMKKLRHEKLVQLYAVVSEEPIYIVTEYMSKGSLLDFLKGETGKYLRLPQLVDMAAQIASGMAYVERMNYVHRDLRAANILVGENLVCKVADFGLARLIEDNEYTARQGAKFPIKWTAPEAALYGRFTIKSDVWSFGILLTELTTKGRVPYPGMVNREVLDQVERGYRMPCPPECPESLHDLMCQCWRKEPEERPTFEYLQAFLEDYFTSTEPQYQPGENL
- ASSAY OVERVIEW: Inhibition of a panel of kinases, in vitro HotSpot kinase assay: SRC
- Assay type: biochemical
- CONDITION LABEL: D-compounds panel data; 1 μM ATP
pIC50: −log10 of the molar value.

Query block: Return pIC50 for the following molecule: C[C@@H]1[C@H](NC(=O)c2ccc3cnn(C)c3c2)CCCN1c1cnc(C(N)=O)c(Nc2cnn(C)c2)n1
Result block: 7.00 to 8.00

Query block: Return pIC50 for the following molecule: Cc1nc2cc(C(=O)N[C@@H]3CCCN(c4cnc(C(N)=O)c(Nc5cnn(C)c5)n4)[C@@H]3C)ccc2o1
Result block: 7.00 to 8.00

Query block: Return pIC50 for the following molecule: COCCn1cc(Nc2nc(N3CCC[C@@H](NC(=O)c4ccc(C5CC5)cc4)[C@H]3C)cnc2C(N)=O)cn1
Result block: 6.00 to 7.00

Query block: Return pIC50 for the following molecule: C[C@@H]1[C@H](NC(=O)c2ccc(C3CC3)nc2)CCCN1c1cnc(C(N)=O)c(Nc2ccc(OC3CCC(F)(F)CC3)cc2)n1
Result block: 6.00 to 7.00
